Tested on: ABUTH
assay details: Post-emergence herbicidal action against ABUTH
Format: in vivo, Abutilon theophrasti
experimental context: Abutilon theophrasti, 504 h, dosage 5 g/ha, visual assessment about 3 weeks after treatment vs untreated controls
Each item that follows carries a reported pest or weed control at 5 g/ha.
Dear colleague, please return just the value in %, with no unit written.

compound structure string: CCNC(=O)c1c(C(F)(F)F)ccc(C(=O)Nc2nnnn2C)c1C
system tested: ABUTH
readout units: %
value reported: 90
--
compound structure string: Cn1nnnc1NC(=O)c1ccc(C(F)F)c(C(=O)NC2CC2)c1Br
system tested: ABUTH
readout units: %
value reported: 100
--
compound structure string: CCNC(=O)c1c(C(F)(F)F)ccc(C(=O)Nc2nnnn2C)c1OC
system tested: ABUTH
readout units: %
value reported: 90
--
compound structure string: CCNC(=O)c1c(C(F)(F)F)ccc(C(=O)Nc2nnnn2C)c1CC
system tested: ABUTH
readout units: %
value reported: 80
--
compound structure string: CCNC(=O)c1c(C(F)(F)F)ccc(C(=O)Nc2nnnn2CC)c1Br
system tested: ABUTH
readout units: %
value reported: 90
--
compound structure string: CCCNC(=O)c1c(C(F)(F)F)ccc(C(=O)Nc2nnnn2CC)c1C
system tested: ABUTH
readout units: %
value reported: 90
--
compound structure string: CCn1nnnc1NC(=O)c1ccc(C(F)F)c(C(=O)NC2CC2)c1Cl
system tested: ABUTH
readout units: %
value reported: 80
--
compound structure string: CCn1nnnc1NC(=O)c1ccc(C(F)(F)F)c(C(=O)NC2CC2)c1OC
system tested: ABUTH
readout units: %
value reported: 100

# ---- query compound ----
Annotate the compound CCNC(=O)c1c(Br)ccc(C(=O)Nc2nnnn2CC)c1Br with its measured pest or weed control at 5 g/ha. 80

---

Each item that follows carries a reported pest or weed control at 20 g/ha.
System: ALOMY
assay details: Post-emergence herbicidal action against ALOMY
Format: in vivo, Alopecurus myosuroides
experimental context: Alopecurus myosuroides, 504 h, dosage 20 g/ha, visual assessment about 3 weeks after treatment vs untreated controls
Dear colleague, please return just the value in %, with no unit written.

Reference set, count: 3
compound structure string: CCNC(=O)c1c(C(F)F)ccc(C(=O)Nc2nnnn2C)c1Br
readout units: %
pest or weed control at 20 g/ha: 100
//
compound structure string: Cn1nnnc1NC(=O)c1ccc(Cl)c(C(=O)NC2CC2)c1Cl
readout units: %
pest or weed control at 20 g/ha: 80
//
compound structure string: CCn1nnnc1NC(=O)c1ccc(C(F)(F)F)c(C(=O)NC)c1Br
readout units: %
pest or weed control at 20 g/ha: 90

Annotate the compound CC(C)NC(=O)c1c(C(F)F)ccc(C(=O)Nc2nnnn2C)c1Cl with its measured pest or weed control at 20 g/ha. 90

Annotate the compound CCNC(=O)c1c(C(F)F)ccc(C(=O)Nc2nnnn2CC)c1Cl with its measured pest or weed control at 20 g/ha. 80

Annotate the compound CCn1nnnc1NC(=O)c1ccc(C(F)F)c(C(=O)NC(C)C)c1Cl with its measured pest or weed control at 20 g/ha. 90

Annotate the compound CCNC(=O)c1c(Br)ccc(C(=O)Nc2nnnn2CC)c1Br with its measured pest or weed control at 20 g/ha. 90

Annotate the compound CCn1nnnc1NC(=O)c1ccc(I)c(C(=O)NC2CC2)c1Cl with its measured pest or weed control at 20 g/ha. 90

Annotate the compound CCn1nnnc1NC(=O)c1ccc(Br)c(C(=O)NC2CC2)c1Cl with its measured pest or weed control at 20 g/ha. 90

Annotate the compound CCNC(=O)c1c(C(F)(F)F)ccc(C(=O)Nc2nnc(C)o2)c1Cl with its measured pest or weed control at 20 g/ha. 80

Annotate the compound CCc1c(C(=O)Nc2nnnn2C)ccc(C(F)(F)F)c1C(=O)NC with its measured pest or weed control at 20 g/ha. 90

Annotate the compound CCn1nnnc1NC(=O)c1ccc(Br)c(C(=O)NC)c1Cl with its measured pest or weed control at 20 g/ha. 100

Annotate the compound Cc1c(C(=O)Nc2nnnn2C)ccc(C(F)(F)F)c1C(=O)NC(C)C with its measured pest or weed control at 20 g/ha. 90

---

Test system: STEME
assay details: Post-emergence herbicidal action against STEME
Format: in vivo, Stellaria media
experimental context: Stellaria media, 504 h, dosage 5 g/ha
quantity kind: pest or weed control at 5 g/ha (%)
Dear colleague, please return just the value in %, with no unit written.

compound structure string: CCNC(=O)c1c(C(F)(F)F)ccc(C(=O)Nc2nnnn2CC)c1Br
system tested: STEME
pest or weed control at 5 g/ha (%): 80

Annotate the molecule CCCn1nnnc1NC(=O)c1ccc(C(F)(F)F)c(C(N)=O)c1Cl with its measured pest or weed control at 5 g/ha. 80

Annotate the molecule CCn1nnnc1NC(=O)c1ccc(Cl)c(C(=O)NC2CC2)c1Cl with its measured pest or weed control at 5 g/ha. 100

Annotate the molecule CNC(=O)c1c(Cl)ccc(C(=O)Nc2nnnn2C)c1C with its measured pest or weed control at 5 g/ha. 80

Annotate the molecule CCNC(=O)c1c(C(F)(F)F)ccc(C(=O)Nc2nnnn2CC)c1Cl with its measured pest or weed control at 5 g/ha. 80

Annotate the molecule CNC(=O)c1c(C(F)(F)F)ccc(C(=O)Nc2nnnn2C)c1Cl with its measured pest or weed control at 5 g/ha. 100

---

Test system: VERPE
assay details: Pre-emergence herbicidal action against VERPE
Format: in vivo, Veronica persica
experimental context: Veronica persica, 504 h, dosage 320 g/ha
quantity kind: pest or weed control at 320 g/ha (%)
Dear colleague, please return just the value in %, with no unit written.

molecule: CCNC(=O)c1c(C(F)(F)F)ccc(C(=O)Nc2nnc(C)o2)c1Cl [Example 6-117]
pest or weed control at 320 g/ha, %: 90

molecule: CCn1nnnc1NC(=O)c1ccc(C(F)(F)F)c(C(=O)NC)c1SC [Example 2-81]
pest or weed control at 320 g/ha, %: 90

molecule: CCn1nnnc1NC(=O)c1ccc(C(F)(F)F)c(C(N)=O)c1Cl [Example 2-338]
pest or weed control at 320 g/ha, %: 100

molecule: CCNC(=O)c1c(C(F)F)ccc(C(=O)Nc2nnnn2CC)c1Cl [Example 2-148]
pest or weed control at 320 g/ha, %: 100

molecule: CCCn1nnnc1NC(=O)c1ccc(C(F)(F)F)c(C(N)=O)c1Cl [Example 3-338]
pest or weed control at 320 g/ha, %: 100

Write pest or weed control at 320 g/ha of CNC(=O)c1c(C(F)(F)F)ccc(C(=O)Nc2nnc(C)o2)c1Cl [Example 6-116] ; system used: VERPE 80

---

Test system: VERPE
assay details: Post-emergence herbicidal action against VERPE
Format: in vivo, Veronica persica
experimental context: Veronica persica, 504 h, 20 g/ha
Each item that follows carries a reported pest or weed control at 20 g/ha.
Dear colleague, please return just the value in %, with no unit written.

compound: CSc1c(C(=O)Nc2nnnn2C)ccc(C(F)(F)F)c1C(=O)NC1CC1 [Example 1-83]
value reported: 90
//
compound: CCNC(=O)c1c(I)ccc(C(=O)Nc2nnnn2CC)c1Cl [Example 2-196]
value reported: 80
//
compound: CCc1c(C(=O)Nc2nnnn2C)ccc(C(F)(F)F)c1C(=O)NC [Example 1-271]
value reported: 90
//
compound: Cn1nnnc1NC(=O)c1ccc(C(F)F)c(C(=O)NC2CC2)c1C1CC1 [Example 1-306]
value reported: 90
//
compound: CCNC(=O)c1c(C(F)F)ccc(C(=O)Nc2nnnn2C)c1OC [Example 1-73]
value reported: 80

Write pest or weed control at 20 g/ha of CCn1nnnc1NC(=O)c1ccc(C(F)F)c(C(=O)NC(C)C)c1C [Example 2-345] ; system used: VERPE 80

Write pest or weed control at 20 g/ha of CCc1c(C(=O)Nc2nnnn2C)ccc(C(F)F)c1C(=O)NC [Example 1-277] ; system used: VERPE 90

Write pest or weed control at 20 g/ha of CCNC(=O)c1c(C(F)F)ccc(C(=O)Nc2nnnn2CC)c1Cl [Example 2-148] ; system used: VERPE 80

Write pest or weed control at 20 g/ha of Cn1nnnc1NC(=O)c1ccc(C(F)F)c(C(=O)NC2CC2)c1Br [Example 1-227] ; system used: VERPE 80

Write pest or weed control at 20 g/ha of Cn1nnnc1NC(=O)c1ccc(C(F)(F)F)c(C(=O)NC2CC2)c1Br [Example 1-209] ; system used: VERPE 80

---

Test system: MATIN
assay details: Pre-emergence herbicidal action against MATIN
Type: in vivo, Matricaria inodora
experimental context: dosage 20 g/ha
From the text: Seeds of monocotyledonous and dicotyledonous weed plants and crop plants are laid out in sandy loam soil in wood-fiber pots and covered with soil. […] The damage to the test plants is scored visually after a test period of 3 weeks by comparison with untreated controls (herbicidal activity in percent (%): 100% activity=the plants have died, 0% activity=like control plants). […]
Each item that follows carries a reported Pre-emergence action against MATIN in %.
Dear colleague, please return just the value in %, with no unit written.

Reference set, count: 4
compound: CCn1nnnc1NC(=O)c1ccc(C(F)(F)F)c(C(=O)NC)c1C1CC1
readout units: %
Pre-emergence action against MATIN in %: 100
--
compound: COCCNC(=O)c1c(C(F)F)ccc(C(=O)Nc2nnnn2C)c1Cl
readout units: %
Pre-emergence action against MATIN in %: 90
--
compound: CCn1nnnc1NC(=O)c1ccc(C(F)(F)F)c(C(=O)NC(C)C2CC2)c1C1CC1 (stereo not shown)
readout units: %
Pre-emergence action against MATIN in %: 90
--
compound: CCNC(=O)c1c(C(F)(F)F)ccc(C(=O)Nc2nnnn2CC)c1CC
readout units: %
Pre-emergence action against MATIN in %: 100

Annotate the compound CCn1nnnc1NC(=O)c1ccc(C(F)F)c(C(=O)NC)c1SC with its measured Pre-emergence action against MATIN in %. 90

Annotate the compound Cn1nnnc1NC(=O)c1ccc(C(F)(F)F)c(C(=O)NCC2CC2)c1C1CC1 with its measured Pre-emergence action against MATIN in %. 90

Annotate the compound CCNC(=O)c1c(C(F)(F)F)ccc(C(=O)Nc2nnc(C)o2)c1C with its measured Pre-emergence action against MATIN in %. 80
